# Tested on: PC-3 prostate
# METHOD DESCRIPTION: NCI-60 one-dose screen, 48 h (100 = growth as untreated, 0 = no growth, -100 = all killed)
# MEASUREMENT PARAMETERS: 10 µM unless noted
The panel holds about 83,000 compounds, 20% with a hit somewhere; the sample as a whole holds those more often.
// classify: if (growth < 30%) T else F

For this molecule, is growth lower than 30%? CC(=O)OCCC/C(=C\c1ccc2ccccc2c1)[N+](=O)[O-] T

For this molecule, is growth lower than 30%? Cc1cc2c(-c3nc4ccccn4c3Nc3cccc4ccccc34)c(O)c(O)cc2c(O)c1-c1c(C)cc2c(-c3nc4ccccn4c3Nc3cccc4ccccc34)c(O)c(O)cc2c1O T

For this molecule, is growth lower than 30%? CO[C@H]1C[C@@H]2CC[C@@H](C)[C@@](O)(O2)C(=O)C(=O)N2CCCC[C@H]2C(=O)O[C@H]([C@H](C)C[C@@H]2CC[C@@H](O)[C@H](OC)C2)CC(=O)[C@H](C)/C=C(\C)[C@@H](O)[C@@H](OC)C(=O)[C@H](C)C[C@H](C)\C=C/C=C/C=C/1C F

For this molecule, is growth lower than 30%? COc1cc(-c2nc(C(=O)NCC(=O)O)nn2-c2ccc(Cl)cc2)cc(OC)c1OC F

For this molecule, is growth lower than 30%? O=S1(=O)OC(c2ccc(O)c(Cl)c2)(c2ccc(O)c(Cl)c2)c2ccccc21 F

For this molecule, is growth lower than 30%? Cc1cccc(C)c1N1C(c2ccccc2)=NNC12C=CC(=O)c1c(O)cccc12 (configuration not stated) F

For this molecule, is growth lower than 30%? CC(C)Nc1cc(-c2c[nH]c(C(=O)N[C@H](CO)c3cccc(Cl)c3)c2)c(Cl)cn1 F

----------
# Tested on: OVCAR-8 ovarian
# METHOD DESCRIPTION: NCI-60 one-dose screen, 48 h (100 = growth as untreated, 0 = no growth, -100 = all killed)
# MEASUREMENT PARAMETERS: 10 µM unless noted
Compounds without any hit were thinned out: in the full panel of roughly 83,000, 20% have a hit.
Give growth for every item shown.
State the answer as a number, implicitly in %.

Output growth of COc1cc2c(cc1OCCCCCN1CCN(c3ncnc4ccccc34)CC1)N=CC1CCCN1C2=O (stereo not drawn) 1.28

Output growth of CNC(=O)c1cc(Oc2cccc3nc(Nc4ccc(Cl)c(F)c4)ccc23)ccn1 48.9

Output growth of Cc1cc2c(-c3nc4ccccn4c3N)c(O)c(O)cc2c(O)c1-c1c(C)cc2c(-c3nc4ccccn4c3N)c(O)c(O)cc2c1O 19.9

Output growth of COCCN1CCN(Cc2ccc(-c3n[nH]c4c3C(=O)c3c(NC(=O)NN5CCOCC5)cccc3-4)cc2)CC1 -13.4

Output growth of CC1CCC(n2cnc3c(Cl)ncnc32)O1 (stereo not drawn) 91.4

Output growth of C=CCCCC(=O)CCC(=O)OCC1O[C@@H](O[C@@H]2C(O)[C@@H](OC(C)=O)C(C)O[C@H]2O[C@H](CC=C)CCCCC)C(O)[C@@H](OC(=O)/C(C)=C/C)[C@@H]1OC(=O)/C=C/c1ccccc1 (stereo partly drawn) 42.1

Output growth of Cc1cc(Oc2ccccc2)ccc1Nc1ncnc2ccc(-c3cnc(Cl)c(NS(C)(=O)=O)c3)cc12 40.4

Output growth of COc1ccc2c(CCCCC(c3ccccc3)c3ccccc3)c3[n+](cc2c1OC)CCc1cc2c(cc1-3)OCO2 -54.8

----------
# Tested on: MDA-MB-435 melanoma
# METHOD DESCRIPTION: NCI-60 one-dose screen, 48 h
# MEASUREMENT PARAMETERS: 10 µM unless noted
About 83,000 compounds went through this panel and 20% of them were active in at least one assay; those are over-represented in the sample as a whole. The source made the active and inactive calls. The calls were made as follows: active = growth percent below 10; inactive = the rest.
Hi! Could you answer with just one of these? Yes for active, No for inactive

Record request — test call for O=C(Cc1ccc(/C=C/C(=O)c2ncc[nH]2)cc1)Nc1ccc(S(F)(F)(F)(F)F)cc1 No

Record request — test call for Cc1cc2c3c(cccc3c1)C(=O)c1ccccc1-2 No

Record request — test call for Cn1cnc(-c2cc3nccc(Oc4ccc(NC(=S)NC(=O)Cc5ccccc5)cc4F)c3s2)c1 No

Record request — test call for CNc1ncc2cc(-c3cc(NC(=O)NCCC(C)(C)C)c(F)cc3C)c(C)nc2n1 Yes

Record request — test call for O=C(CNc1nnc(-c2ccc(Cl)cc2)o1)Nc1ccc(-c2nc3ccccc3s2)cc1 No

Record request — test call for ClCc1ccc(-c2ccc(Cn3cnc4c(Cl)nc(Cl)nc43)cc2)cc1 Yes

Record request — test call for CCCCCc1ccc(C)cc1OC(=O)CCl No

Record request — test call for O=C(Nc1ccc(Nc2ncnc3sc4c(c23)CCOC4)cc1)Nc1ccc(Cl)c(C(F)(F)F)c1 No

Record request — test call for Cc1ccc(-[n+]2c3cc(N)c(C)cc3nc3cc(C)c(Nc4ccccc4)cc32)cc1 Yes

Record request — test call for NC1=Nc2cc(OCCCN3Cc4ccccc4C3)c(OCC3CC3)cc2C12CCCC2 No

----------
# Tested on: U251 CNS
# METHOD DESCRIPTION: NCI-60 one-dose screen, 48 h (100 = growth as untreated, 0 = no growth, -100 = all killed)
# MEASUREMENT PARAMETERS: 10 µM unless noted
This is part of a sample that, as a whole, favours compounds with a hit. Of some 83,000 tested, about 20% had one in any assay.
Hi, to clarify the labels: met covers growth from 60% upward, not met covers anything below 60%.

Entry O=C(Nc1ccc(C2=NCCCN2)cc1)c1ccc(C(=O)Nc2ccc(C3=NCCCN3)cc2)nc1 : is its growth no less than 60%? met

Entry C#Cc1cccc(Nc2ncnc3cc4c(cc23)OCCOCCOCCO4)c1 : is its growth no less than 60%? not met

Entry O=C(Nc1cn[nH]c1-c1nc2ccc(CN3CCOCC3)cc2[nH]1)NC1CC1 : is its growth no less than 60%? not met

Entry O=C1C=CC2(NN=C(c3ccccc3)N2c2ccc(Cl)cc2)c2cccc(O)c21 (stereo not given) : is its growth no less than 60%? not met

Entry COC(=O)c1ccc2c(C(=Nc3ccc(N(C)C(=O)CN4CCN(C)CC4)cc3)c3ccccc3)c(O)[nH]c2c1 : is its growth no less than 60%? not met

----------
# Tested on: CAKI-1 renal
# METHOD DESCRIPTION: NCI-60 one-dose screen, 48 h (100 = growth as untreated, 0 = no growth, -100 = all killed)
# MEASUREMENT PARAMETERS: 10 µM unless noted
This is part of a sample that, as a whole, favours compounds with a hit. Of some 83,000 tested, about 20% had one in any assay.
Give growth for every item shown.
State the answer as a number, implicitly in %.

Output growth of COc1cc(Nc2ncc(F)c(Nc3ccc4c(n3)NC(=O)C(C)(C)O4)n2)cc(OC)c1OC 9.51

Output growth of COc1ccc(Cl)c(Nc2nc3ccccc3nc2NS(=O)(=O)c2cccc(NC(=O)C(C)(C)N)c2)c1 29

Output growth of O=C(COc1ccc(/C=C2\Cc3ccc(Cl)cc3C2=O)cc1)Nc1nccs1 90.1

Output growth of COc1ccc(S(=O)(=O)N(C(C)=O)c2ccccc2/C=C/c2cc[n+]([O-])cc2)cc1 32.7

Output growth of CCN1CCN(CCCN(C[C@H]2Cc3ccccc3CN2)[C@H]2CCCc3cccnc32)CC1 74.4

Output growth of O=C1CC(c2ccc3c(c2)OCO3)c2ncn(-c3ccc(Cl)cc3)c2N1 (centres undefined) 37.1

Output growth of CCN(CCO)CCCOc1ccc2c(Nc3cc(CC(=O)Nc4cccc(F)c4)[nH]n3)ncnc2c1 35.4

Output growth of COc1ccc(C2CC(=O)c3c(O)c(OC)c(OC)c(OC)c3O2)cc1O (centres undefined) 38.9

Output growth of COc1cc2c(cc1OCCCCCCN1CCN(c3ncnc4ccccc34)CC1)N=CC1CCCN1C2=O (centres undefined) -19.6

----------
# Test system: DU-145 prostate
# METHOD DESCRIPTION: NCI-60 one-dose screen, 48 h
# MEASUREMENT PARAMETERS: 10 µM unless noted
This is part of a sample that, as a whole, favours compounds with a hit. Of some 83,000 tested, about 20% had one in any assay. Active and inactive are the calls of the source. The calls were made as follows: active = growth percent below 10; inactive = the rest.
Hi! Could you answer with just one of these? active, inactive

Record request — test call for CN1CCC(CNc2ccc3ncc(-c4cccc(OC(F)(F)F)c4)n3n2)CC1 inactive

Record request — test call for Brc1ccc([I+]c2ccc(Br)cc2)cc1 inactive

Record request — test call for O=[N+]([O-])c1cc(Br)cc2c1[nH]c1ccc(Br)cc12 inactive

Record request — test call for O=C(Cn1cncn1)Nc1ccc(-c2nc3ccccc3s2)cc1 inactive

Record request — test call for CCOC(=O)Sc1ncnc2nc[nH]c12 inactive

Record request — test call for Cc1cc(Nc2cc(N3CCN(C)CC3)nc(Sc3ccc(NC(=O)C4CC4)cc3)n2)n[nH]1 inactive

Record request — test call for COc1ccc(-c2cc3c(C)nc(N)nc3n(C3CCC(OCCO)CC3)c2=O)cn1 (stereo not given) active

Record request — test call for CCc1cnn2c(NCc3ccc[n+]([O-])c3)cc(N3CCCC[C@H]3CCO)nc12 active

Record request — test call for C=CC(=O)N(C)[C@H]1C[C@H]2OC(C)(C1OC)n1c3ccccc3c3c4c(c5c6ccccc6n2c5c31)C(=O)NC4 (stereo not given in full) inactive

Record request — test call for CC(C)[C@@H]1CC[C@@H]2[C@@H]1[C@H](OC(=O)/C=C/c1ccccc1)[C@]1(C(C)C)C[C@@H](OC(=O)CO)[C@@]2(C)O1 inactive

Record request — test call for CCOc1ccc(N=C(C)Nc2ccc(OCC)cc2)cc1 inactive

Record request — test call for Cc1cccc(Cl)c1NC(=O)c1cnc(Nc2cc(N3CCOCC3)cc(S(C)(=O)=O)c2)s1 active

Record request — test call for CC(C)(C)C(=O)OCOP(=O)(OCOC(=O)C(C)(C)C)C1CCCN(OC(=O)c2ccccc2)C1=O (stereo not given) inactive

Record request — test call for CCc1nc2cc(/C=C/C(=O)NO)c(F)cc2c(=O)n1CCc1ccccc1 active

Record request — test call for CN1CCN(c2nc(NCCNc3ccnc4cc(Cl)ccc34)c3ccccc3n2)CC1 inactive

Record request — test call for CN(C)CCn1c(=O)c2c3cc4c(cc3n(CCN(C)C)c2c2ccc(Cl)cc21)OCO4 inactive

Record request — test call for CC(C)(C)c1cnc(CSc2cnc(NC(=O)C3CCNCC3)s2)o1 active

Record request — test call for Cc1cc(C(=O)Nc2cc(Oc3ccc4nc(NC(=O)C5CC5)cn4n3)ccc2C)n(C)n1 inactive

Record request — test call for CS(=O)(=O)N1CCN(Cc2cc3nc(-c4cccc5[nH]ncc45)nc(N4CCOCC4)c3s2)CC1 inactive

Record request — test call for C[C@@H](NC(=O)c1ncnc(N)c1Cl)c1ncc(C(=O)Nc2cc(C(F)(F)F)c(Cl)cn2)s1 inactive
